Values compiled from PubChem BioAssay (NCI).

Tested on: HL-60(TB) leukemia
Assay: NCI tumour cell line growth inhibition, 48 h
observation type: TGI

The examples below pair each entry with its known result.
Field TGI (entry `N#Cc1c(NC(=S)NC(=O)c2ccccc2)nc2c(c1-c1ccccc1)CCCC2` ) reads > 100 µM

So for Cc1cc2c(c(C=NCc3ccccc3)c1)OC1(C=C2)Oc2ccccc2C(=O)N1C (stereo unspecified) , the logged TGI turned out to be 60.2 µM

response.value for `Fc1cccc(COc2ccc(Nc3ncnc4cc(-c5ccc[nH]5)sc34)cc2Cl)c1` (field: TGI) = 3.22 µM

Lookup result for `CN(C)Cc1cc(N=Nc2ccccc2)cc(CN(C)C)c1O` ; measured TGI: 66.9 µM

# compound `Cc1cc(=O)oc2cc3c(cc12)Oc1ccccc1O3` ; its TGI = > 10 µM

Kindly consider the entry below.
// TGI value for `O=c1[nH]nc(Cc2ccccc2)n1Nc1ccccc1` : > 100 µM
